This collection of values is drawn from ChEMBL document CHEMBL2434944.

- Test system: NCI-H322M
- PROCEDURE SUMMARY: Growth inhibition of human NCI-H322M cells assessed as cell growth at 10^-5 M after 48 hrs by sulforhodamine B assay relative to control
- Type: functional
- MEASUREMENT CONTEXT: read-out: Activity
Quick reference: growth at 10 µM of the listed items.
Be sure to follow the number with its unit.

// worked examples, growth at 10 µM included
smiles_repr=CN1CCN(C(=O)Cn2c(-c3ccccc3)csc2=N)CC1 assay_readout="growth at 10 µM" result=90.2%
smiles_repr=N=c1scc(-c2ccccc2)n1CC(=O)N1CCN(c2ccccc2)CC1 assay_readout="growth at 10 µM" result=92.6%

Given the entry N=c1scc(-c2ccc(Cl)cc2)n1CC(=O)N1CCOCC1 , what growth at 10 µM was observed with NCI-H322M?
104%

Similarly, Cc1ccc(-c2csc(=N)n2CC(=O)N2CCN(C)CC2)cc1 ?
104%

Similarly, N=c1scc(-c2ccccc2)n1CC(=O)N1CCOCC1 ?
97.9%

Similarly, CC(=O)N1CCN(C(=O)Cn2c(-c3ccccc3)csc2=N)CC1 ?
94.4%

Similarly, CN1CCN(C(=O)Cn2c(-c3ccc(Cl)cc3)csc2=N)CC1 ?
95.9%

Similarly, Cc1ccc(-c2csc(=N)n2CC(=O)N2CCN(c3ccccc3)CC2)cc1 ?
99.7%

Similarly, CC(=O)N1CCN(C(=O)Cn2c(-c3ccc(Cl)cc3)csc2=N)CC1 ?
90.4%

Similarly, CC(=O)N1CCN(C(=O)Cn2c(-c3ccc(C)cc3)csc2=N)CC1 ?
108%

Similarly, N=c1scc(-c2ccc(Cl)cc2)n1CC(=O)N1CCN(c2ccccc2)CC1 ?
99.8%

Similarly, Cc1ccc(-c2csc(=N)n2CC(=O)N2CCOCC2)cc1 ?
111%
